- assay remarks: soluble on expression in E. coli; label from the status in PepcDB or PDB records

macromolecule sequence: MLVKPPYSYIALITMAIQNAPEKKITLNGIYQFIMDRFPFYRENKQGWQNSIRHNLSLNECFVKVPRDDKKPGKGSYWTLDPDSYNMFENGSFL
soluble on expression in E. coli: soluble
--
macromolecule sequence: GAMVVSPAGADRRIPTWASRVVSGLARDRPVVVTKEDLTQRLTEAGCGRDPDSAIRELRRIGWLVQLPVKGTWAFIPPGEAAISDPYLPLRSWLARDQNAGFMLAGASAAWHLGYLDRQPDGRIPIWLPPAKRLPDGLASYVSVVRIPWNAADTALLAPRPALLVRRRLDLVAWATGLPALGPEALLVQIATRPASFGPWADLVPHLDDLVADCSDERLERLLSGRPTSAWQRASYLLDSGGEPARGQALLAKRHTEVMPVTRFTTAHSRDRGESVWAPEYQLVDELVVPLLRVIGKA
soluble on expression in E. coli: soluble

###

- assay remarks: soluble on expression in E. coli; label from the status in PepcDB or PDB records

macromolecule sequence: IPIPSALEARLDAYVALLQQWQAKTNLVAPSTLPQLWTRHVADSLQLVSLMPHARRWLDFGSGGGFPGVVLACAMADVGGHVTLVERIAKKAAFLREALRVAGAPGTVILADIGDNVDRFPQALDCITARAVAPLHQLIGFAEPLMTPGTTKALFLKGQDVDAELTETTKYWKFQPKLHASVTGGQGWIVEIDHIER
soluble on expression in E. coli: not soluble
//
macromolecule sequence: MKPPSSIQTSEFDSSDEEPIEDEQTPIHISWLSLSRVNCSQFLGLCALPGCKFKDVRRNVQKDTEELKSCGIQDIFVFCTRGELSKYRVPNLLDLYQQCGIITHHHPIADGGTPDIASCCEIMEELTTCLKNYRKTLIHSYGGLGRSCLVAACLLLYLSDTISPEQAIDSLRDLRGSGAIQTIKQYNYLHEFRDKLAAHLSSRDSQSRSVSR
soluble on expression in E. coli: soluble
//
macromolecule sequence: SNAMSQKLYNMKFAAVYLALIAKVERKGGKAESVHQVTSWLTGYEVSDVLACLDRDVTYGDFFRQAPYYVPERIAITGKICGVRIEEIDDPLMQEIRRLDKLVDWLAKGKTSQQVLEKYEKHK
soluble on expression in E. coli: soluble
//
macromolecule sequence: MGSDKIHHHHHHMNAERQPSCCKVRLLLCDKSYPSHQSPIYTPTPPPWPLLALPGGVIMRTYLSSVAAIMSRSPDPAPRSSAPGRRASSSTRPPLARIGEVAYLKVVAVNTTGAFLDWGQPKDVLLPFAEQRFRPEVGKRVLVMLYEDAQGRPVASMRLDRFLADEATDLKAGDQVALVVAERTDLGFKAVVDHRYWGLLYADDIVHPPRRGQRLTGYIKRVREDGRLDLAMLPPGEAGLDVVGDKVLALLRCHGGFVALGDKTPAAEIKARVGVSKSAFKQAVGRLYKKRLITIEAEGIRLTREAIDDASSD
soluble on expression in E. coli: not soluble

###

- assay remarks: soluble on expression in E. coli; label from the status in PepcDB or PDB records
readout name: soluble on expression in E. coli

macromolecule sequence: MGSDKIHHHHHHMINPIILPLDKVRNPRDLGSYVGYNGRKIKMHRLLRTGKISNITEHDKKFLLDYGLTKIIDLRSPFECKKAPDSQIPGVEHIDLSISTEDNTKGGKKDITKVFETYRKDQYAGFNMMCDRYRSHVMKEHAQHALHSILEVLANTKDGAIIYHCSEGKDRTGIVTVLILYLLGVDMETIRQDYLYSNYMLDNYRASRDKIMQENGENLCFRANMRILGSVSDAFLDTSLIAIHKNFGSLDNYLKEIIGVTPELRDTLRELYLED
value observed: not soluble

macromolecule sequence: MGSDKIHHHHHHMSQRENPQNSSQDVADLLGGAFAGHTMQRLRTPDGKYRYSYVSSGVQASFGLDPEALMQLQDVDHSWLHPADRSLFIAALEQSAAALTRLDEEVRVSLDDGTFKWVRSIGNPRRMRDGTVIWDGVALDVTDRHEASEALERTLTQVRQNETSEGRFSYIAASDVLDRLSSLRAAVEQLDLSVPTAAHVHAVFQKFERGLFAARDLLDDTALDETRPTDHEPHKDISATLTPRQQDILGHVSRGATNRDIARAMDISEGTVKLHISAILKRTGAQNRTEAALAWTSSNGTPRR
value observed: not soluble

macromolecule sequence: MRGSHHHHHHTDPALRAENIMNNPVIGVVMCRNRLKGHATQTLQEKYLNAIIHAGGLPIALPHALAEPSLLEQLLPKLDGIYLPGSPSNVQPHLYGENGDEPDADPGRDLLSMAIINAALERRIPIFAICRGLQELVVATGGSLHRKLCEQPELLEHREDPELPVEQQYAPSHEVQVEEGGLLSALLPECSNFWVNSLHGQGAKVVSPRLRVEARSPDGLVEAVSVINHPFALGVQWHPEWNSSEYALSRILFEGFITACQHHIAEKQRLGLCGR
value observed: soluble

macromolecule sequence: MIDPREPIVTPVPVEELRPTQITVGMREVALKRQMIREQDAKKKTGAFLGKHMVPVVLGPKNRNYVTDHHHLARALLEEGVKDVLVTVISDLSALDKDTFLFVLDNRGWMHPFDESGRRRDYSAIPKTIGELIDDPYRSMAGELRRMGGFAKDTTPFSEFIWADFLRRRIDRNAVAKNFDKAMKEALSLAKGKDADYLPGWCGPTSDAAALEHHHHHH
value observed: soluble

macromolecule sequence: MEVCSTVTTKKLSSLAKLILFTIQKVSDASRHKLLTTLDPHLLAKRGKILRKSLNEAVSTSHSRITCRPSDHQDVRSSFISPVPLQLEYEFSCSSTPPRRSYATTVSKGRRSNGSHNRPLINKRQRQAYIRYNTLPKVRDSIWDRHVAAAVFPDVASSTGTMESCHVDRAAEEFIQSFYRQLRLQKWMMAQEV
value observed: not soluble

macromolecule sequence: MSLAVKILSVDDELDLEVLLTQYFRRQIRKGEYEFAFAHNGLEALQKLLETPDFDIILSDINMPEMDGLTLLAKVNELKNPAMKCIMVSAYGDMDNIRSAMNKGAFDFATKPIDLDDLSRTIEKAIEQVRYIRESQQEHNQLESIKNDLAIAGEIQQTILPRSFPPFPELTEVVNIYASMTPAKDVGGDFYDFFQIDDERIGLVIADVSGKGVPASLFMAVSRTLLRATALRGVSSAECLTYANKLLCKESLDSMFVTVFYGIYHYKTGMMDYTNAGHNPPYLLRGGRTVECLPVASNFVVGVFDDIEFESNTLTFGIGDTLLLYTDGVTEAFNDKREQFSESNLQDILASMHESSSAKEVVTSVLQSVKTFSGDYPQSDDITLLSLQRIKEGHHHHHH
value observed: soluble

macromolecule sequence: MGSDKIHHHHHHMMSYVRMTLYHGTDRKSAEKIMESKEILPSQGDNHWLGDGIYFYEEEFHAFKWIWYKEKNRNRLLKNFAIIKAEVICEESRIFDLTKIEHKLLFDMMYKLINTTKLRLDKLRGDMCAEGVVINYMFKNKELGYNKRFDIVRALFPIPVKKYQKIENREKNKKYKERTHRLTFMPEIQVCVKNPSVIKKLEWYDLEKTIDKFLIYTEIYKEDLGI
value observed: not soluble

macromolecule sequence: MSLQLKSEKARIILSGEPTLLIDKGKIDISALKSQRLNINDLMEELRLKNYFNVEDIEYAILETSGQISLIPKTHLTNATKEDLNLKVKQENVPITIILDGKVNTDNIKYLNKDADWLMKELKKNKIDSPKDVFLALIDSKGKFYYQKYNNEGHHHHHH
value observed: not soluble

macromolecule sequence: MKTIHVSVVTPDGPVYEDDVEMVSVKAKSGELGILPGHIPLVAPLEISAARLKKGGKTQYIAVSGGFLEVRPDKVTILAQAAERAEDIDVLRAKAAKERAERRLQSQQDDIDFKRAELALKRAMNRLSVAEMK
value observed: soluble

macromolecule sequence: MLRLLLRHHFHCLLLCAVWATPCLASPWSTLTANQNPSPPWSKLTYSKPHDAATFYCPFLYPSPPRSPLQFSGFQQVSTGPECRNETLYLLYNREGQTLVERSSTWVKKVIWYLSGRNQTILQRMPQTASKPSDGNVQISVEDAKIFGAHMVPKQTKLLRFVVNDGTRYQMCVMKLESWAHVFRDYSVSFQVRLTFTEANNQTYTFCTHPNLIVLEHHHHHH
value observed: not soluble

macromolecule sequence: GPGSMRAVVFSDVASAELREHIRAIASTSYAEVVYVDVSESAEADLATAWHTRYGGASHSPPAARDELDDLKNTFVCYLTEQKTIEDSDVVYAVFVAEVHTLVLTPSVTLTPLMHATADGSVSARKAAIESFFSVAPSSSSAEVIVVEGGDGAGKETQTGLLVRRVHAAGDEVHALDFPNEKGLYGGLVRAVLSGKKGPISELNPQLFSFLYSLNRFGCARQLHFWLRRGSSVVLDRYYTANFGHQASKLPPEEREAFISDLEFMEVEWLGLPRATYVLYLDLPPAVALEAMRQDATRKQLDIHETAGSDYKERVRQTYRWCCEHLPGWHHIECFSDDGRRLTREEVHASITSHLRDAGSRAIGAPS
value observed: not soluble
